# System: HUVEC cells
# Experiment: CCK-8 cell viability: alleviation of proliferative toxicity of anti-tumor agents on HUVEC cells (Tables 7-1, 7-2)
# Type: cell-based
# Test conditions: Homo sapiens, 24 h, Lapatinib (5 μM), NO-NSAID 100 μM, percentage increase in viable cells vs anti-tumor agent alone, read-out: Response rate % (average)
Met if activation at 100 µM is below 40%. Not met if not; exact matches included in Not met.

# Compound, Label
data = [
    ("COc1ccc2cc(C(C)C(=O)OCCCCO[N+](=O)[O-])ccc2c1 (centres unmarked)", "Not met"),
    ("CC(C)Cc1ccc(C(C)C(=O)OCO/N=[N+](\\[O-])N(C)C)cc1 (centres unmarked)", "Met"),
    ("CC(C(=O)OCC(CO[N+](=O)[O-])O[N+](=O)[O-])c1ccc(-c2ccccc2)c(F)c1 (centres unmarked)", "Met"),
    ("CC(C(=O)OCCCO[N+](=O)[O-])c1ccc(-c2ccccc2)c(F)c1 (centres unmarked)", "Met"),
    ("CC(=O)Oc1ccccc1C(=O)Oc1cccc(CO[N+](=O)[O-])c1", "Met"),
]
